- Protocol notes: Cytotoxicity assay (CellTiter-Glo cell viability, 72 hours)
- Type: cell-based
- Measurement conditions: African green monkey; Vero cells, 72 hours, growth inhibition; read-out: Cytotoxicity IC50
*1 amine or outer side, *2 acyl side, *3 side chain or, on linkers, in order; H or OH if unused. Where a SMILES comes first, the peptide text is derived from it. Bridges are numbered along the chain shown (N, C = ends). [ ]: non-standard residue; d: D form. The star is where a group is joined. Phe(3,5-F2) = N[C@@H](Cc1cc(F)cc(F)c1)C(=O)O; NH(1-Me-indolin-5-yl) = CN1CCc2cc(N*)ccc21; Pro(4R-Me) = C[C@H]1CN[C@H](C(=O)O)C1; aThr = C[C@H](O)[C@H](N)C(=O)O; Pip = O=C(O)[C@@H]1CCCCN1; X3 = Cn1ccc2ccc(N*)cc21; CO = O=C([*:1])[*:2]
Kindly state IC50 at 72 h for each of the entries shown.
Your answer is read as µM, so omit the unit and give the number.

Record C[C@@H]1C[C@H]2C(=O)O[C@@H](C)[C@H](NC(=O)[C@H](Cc3cc(F)cc(F)c3)NC(=O)Nc3ccc4ccn(C)c4c3)C(=O)N3CCC[C@H]3C(=O)N3CCCC[C@H]3C(=O)N[C@@H](C)C(=O)N2C1 [Compound 306] ({X3-CO}-[Phe(3,5-F2)][aThr]P[Pip]A[Pro(4R-Me)]; ester 2-C) . Reported IC50 at 72 h: 11.8

Record C[C@@H]1C[C@H]2C(=O)O[C@@H](C)[C@H](NC(=O)[C@H](Cc3cc(F)cc(F)c3)NC(=O)Nc3ccc4c(c3)CCN4C)C(=O)N3CCC[C@H]3C(=O)N3CCCC[C@H]3C(=O)N[C@@H](C)C(=O)N2C1 [Compound 310] ({NH(1-Me-indolin-5-yl)-CO}-[Phe(3,5-F2)][aThr]P[Pip]A[Pro(4R-Me)]; ester 2-C) . Reported IC50 at 72 h: 0.4

====

- Tested on: Streptococcus pyogenes, ATCC 700294
- Protocol notes: Minimal inhibitory concentration assay (microbroth dilution)
- Type: cell-based
- Measurement conditions: Streptococcus pyogenes, ATCC700294; read-out: Minimal Inhibitory Concentrations S. pyogenes ATCC 700294
*1 amine or outer side, *2 acyl side, *3 side chain or, on linkers, in order; H or OH if unused. Where a SMILES comes first, the peptide text is derived from it. Bridges are numbered along the chain shown (N, C = ends). [ ]: non-standard residue; d: D form. The star is where a group is joined. ξ: configuration not given here. NH(1,3-benzodioxol-5-yl) = c1cc2c(cc1N*)OCO2; Phe(3,5-F2) = N[C@@H](Cc1cc(F)cc(F)c1)C(=O)O; Morpholine(3S-CO) = O=C(O)[C@@H]1COCCN1; NH(4-Cl-2-F-phenyl) = Fc1cc(Cl)ccc1N*; Pro(4R-Me) = C[C@H]1CN[C@H](C(=O)O)C1; Hyp = O=C(O)[C@@H]1C[C@@H](O)CN1; ξNMeThr = CNC(C(=O)O)[C@@H](C)O; aThr = C[C@H](O)[C@H](N)C(=O)O; Pip = O=C(O)[C@@H]1CCCCN1; X1 = N#Cc1cc(N*)ccc1F; CO = O=C([*:1])[*:2]
For each record, check the reported MIC: if it is below 1 µM write Condition met, else write Condition not met.

[ask] API: query returns whether the compound falls strictly under 1 µM in MIC. Query: C[C@@H]1C[C@H]2C(=O)OC[C@H](NC(=O)[C@H](Cc3cc(F)cc(F)c3)NC(=O)Nc3ccc4c(c3)OCO4)C(=O)N3C[C@H](O)C[C@H]3C(=O)N3CCCCC3C(=O)N[C@@H](C)C(=O)N2C1 (some centres unmarked)
[reply] Condition met

[ask] API: query returns whether the compound falls strictly under 1 µM in MIC. Query: CN[C@@H]1[C@H](O)[C@H](NC)[C@H]2O[C@@]3(O)C(=O)C[C@@H](C)O[C@H]3O[C@@H]2[C@H]1O [Spectinomycin, spectinomycin, reference compound]
[reply] Condition not met

[ask] API: query returns whether the compound falls strictly under 1 µM in MIC. Query: NC[C@H]1O[C@H](O[C@H]2[C@H](O)[C@@H](O[C@H]3O[C@H](CO)[C@@H](O)[C@H](N)[C@H]3O)[C@H](N)C[C@@H]2N)[C@H](O)[C@@H](O)[C@@H]1O [Kanamycin, kanamycin, reference compound]
[reply] Condition not met

[ask] API: query returns whether the compound falls strictly under 1 µM in MIC. Query: C[C@@H]1C[C@H]2C(=O)O[C@@H](C)[C@H](NC(=O)[C@H](Cc3cc(F)cc(F)c3)NC(=O)Nc3ccc(Cl)cc3F)C(=O)N3CCC[C@H]3C(=O)N(C)C([C@@H](C)O)C(=O)N[C@@H](C)C(=O)N2C1 (stereo partly drawn) [Compound 313] ({NH(4-Cl-2-F-phenyl)-CO}-[Phe(3,5-F2)][aThr]P[ξNMeThr]A[Pro(4R-Me)]; ester 2-C)
[reply] Condition met

[ask] API: query returns whether the compound falls strictly under 1 µM in MIC. Query: C[C@@H]1C[C@H]2C(=O)O[C@@H](C)[C@H](NC(=O)[C@H](Cc3cc(F)cc(F)c3)NC(=O)Nc3ccc4c(c3)OCO4)C(=O)N3CCC[C@H]3C(=O)N3CCCC[C@H]3C(=O)N[C@@H](C)C(=O)N2C1 [Compound 198] ({NH(1,3-benzodioxol-5-yl)-CO}-[Phe(3,5-F2)][aThr]P[Pip]A[Pro(4R-Me)]; ester 2-C)
[reply] Condition met

[ask] API: query returns whether the compound falls strictly under 1 µM in MIC. Query: C[C@@H]1C[C@H]2C(=O)O[C@@H](C)[C@H](NC(=O)[C@H](Cc3cc(F)cc(F)c3)NC(=O)Nc3ccc(F)c(C#N)c3)C(=O)N3C[C@H](O)C[C@H]3C(=O)N3CCOC[C@H]3C(=O)N[C@@H](C)C(=O)N2C1 [Compound 326] ({X1-CO}-[Phe(3,5-F2)][aThr][Hyp][Morpholine(3S-CO)]A[Pro(4R-Me)]; ester 2-C)
[reply] Condition not met

[ask] API: query returns whether the compound falls strictly under 1 µM in MIC. Query: `C[C@@H]1C[C@H]2C(=O)OC[C@H](NC(=O)[C@H](Cc3ccccc3)NC(=O)Nc3ccc4c(c3)OCO4)C(=O)N3CCC[C@H]3C(=O)N3CCCC[C@H]3C(=O)N[C@@H](C)C(=O)N2C1`
[reply] Condition met

[ask] API: query returns whether the compound falls strictly under 1 µM in MIC. Query: `C[C@@H]1C[C@H]2C(=O)OC[C@H](NC(=O)[C@H](Cc3ccccc3)NC(=O)Nc3ccc(OC(F)(F)F)cc3)C(=O)N3CCC[C@H]3C(=O)N3CCCC[C@H]3C(=O)N[C@@H](C)C(=O)N2C1`
[reply] Condition met

====

- Tested on: Staphylococcus aureus, USA 300
- Protocol notes: Minimal inhibitory concentration assay
- Format: cell-based
- Measurement conditions: USA300, read-out: Minimal Inhibitory Concentrations S. aureus USA 300
*1 amine or outer side, *2 acyl side, *3 side chain or, on linkers, in order; H or OH if unused. Where a SMILES comes first, the peptide text is derived from it. Bridges are numbered along the chain shown (N, C = ends). [ ]: non-standard residue; d: D form. The star is where a group is joined. ξ: configuration not given here. Piperazine(2S-CO,4-Me) = CN1CCN[C@H](C(=O)O)C1; Phe(3,5-F2) = N[C@@H](Cc1cc(F)cc(F)c1)C(=O)O; Pro(4S-Me) = C[C@@H]1CN[C@H](C(=O)O)C1; NH(4-Cl-2-F-phenyl) = Fc1cc(Cl)ccc1N*; Pro(4R-Me) = C[C@H]1CN[C@H](C(=O)O)C1; X11 = O=C(C1C[C@@H](F)CN1[*:1])[*:2]; NMeaThr = CN[C@H](C(=O)O)[C@H](C)O; ξPro(4R-Me) = C[C@H]1CNC(C(=O)O)C1; Hyp = O=C(O)[C@@H]1C[C@@H](O)CN1; NMeT = CN[C@H](C(=O)O)[C@@H](C)O; Heptenoyl(2E) = CCCC/C=C/C(=O)*; NH(4-Me-phenyl) = Cc1ccc(N*)cc1; aThr = C[C@H](O)[C@H](N)C(=O)O; Pip = O=C(O)[C@@H]1CCCCN1; NMeA = CN[C@@H](C)C(=O)O; X6 = Cc1cc(C)cc(N*)c1; ξPip = O=C(O)C1CCCCN1; CO = O=C([*:1])[*:2]; ξP = O=C(O)C1CCCN1
For each record, check the reported MIC: if it is below 0.1 µM write yes, else write no.

[ask] API: query returns whether the compound falls strictly under 0.1 µM in MIC. Query: Cc1ccc(NC(=O)N[C@@H](Cc2cc(F)cc(F)c2)C(=O)N[C@@H]2C(=O)N3CCC[C@H]3C(=O)N(C)[C@@H]([C@@H](C)O)C(=O)N[C@@H](C)C(=O)N3C[C@@H](C)C[C@H]3C(=O)O[C@H]2C)cc1 [Compound 35] ({NH(4-Me-phenyl)-CO}-[Phe(3,5-F2)][aThr]P[NMeT]A[Pro(4S-Me)]; ester 2-C)
[reply] no

[ask] API: query returns whether the compound falls strictly under 0.1 µM in MIC. Query: Cc1ccc(NC(=O)N[C@@H](Cc2cc(F)cc(F)c2)C(=O)N[C@@H]2C(=O)N3C[C@H](O)C[C@H]3C(=O)N(C)[C@@H](C)C(=O)N[C@@H](C)C(=O)N3C[C@@H](C)C[C@H]3C(=O)O[C@H]2C)cc1 [Compound 214] ({NH(4-Me-phenyl)-CO}-[Phe(3,5-F2)][aThr][Hyp][NMeA]A[Pro(4S-Me)]; ester 2-C)
[reply] no

[ask] API: query returns whether the compound falls strictly under 0.1 µM in MIC. Query: CN[C@@H]1[C@H](O)[C@H](NC)[C@H]2O[C@@]3(O)C(=O)C[C@@H](C)O[C@H]3O[C@@H]2[C@H]1O [Spectinomycin, spectinomycin, reference compound]
[reply] no

[ask] API: query returns whether the compound falls strictly under 0.1 µM in MIC. Query: Cc1ccc(NC(=O)N[C@@H](Cc2cc(F)cc(F)c2)C(=O)N[C@@H]2C(=O)N3CCC[C@H]3C(=O)N(C)[C@@H]([C@H](C)O)C(=O)N[C@@H](C)C(=O)N3C[C@@H](C)C[C@H]3C(=O)O[C@H]2C)cc1 [Compound 202] ({NH(4-Me-phenyl)-CO}-[Phe(3,5-F2)][aThr]P[NMeaThr]A[Pro(4S-Me)]; ester 2-C)
[reply] no

[ask] API: query returns whether the compound falls strictly under 0.1 µM in MIC. Query: Cc1ccc(NC(=O)N[C@@H](Cc2cc(F)cc(F)c2)C(=O)N[C@H]2COC(=O)C3C[C@@H](F)CN3C(=O)[C@H](C)NC(=O)C3CCCCN3C(=O)C3CCCN3C2=O)cc1 (stereo partly shown) [Compound 51] ({NH(4-Me-phenyl)-CO}-[Phe(3,5-F2)]S[ξP][ξPip]A[X11]; ester 2-C)
[reply] no

[ask] API: query returns whether the compound falls strictly under 0.1 µM in MIC. Query: Cc1ccc(NC(=O)N[C@@H](Cc2cc(F)cc(F)c2)C(=O)N[C@@H]2C(=O)N3CCCC3C(=O)N3CCCCC3C(=O)N[C@@H](C)C(=O)N3C[C@H](C)CC3C(=O)O[C@H]2C)cc1 (stereo partly drawn) [Compound 39] ({NH(4-Me-phenyl)-CO}-[Phe(3,5-F2)][aThr][ξP][ξPip]A[ξPro(4R-Me)]; ester 2-C)
[reply] yes

[ask] API: query returns whether the compound falls strictly under 0.1 µM in MIC. Query: C[C@@H]1C[C@H]2C(=O)OC[C@H](NC(=O)[C@H](Cc3cc(F)cc(F)c3)NC(=O)Nc3ccc(Cl)cc3F)C(=O)N3CCC[C@H]3C(=O)N3CCN(C)C[C@H]3C(=O)N[C@@H](C)C(=O)N2C1 [Compound 330] ({NH(4-Cl-2-F-phenyl)-CO}-[Phe(3,5-F2)]SP[Piperazine(2S-CO,4-Me)]A[Pro(4R-Me)]; ester 2-C)
[reply] no

[ask] API: query returns whether the compound falls strictly under 0.1 µM in MIC. Query: Cc1cc(C)cc(NC(=O)N[C@@H](Cc2cc(F)cc(F)c2)C(=O)N[C@@H]2C(=O)N3CCC[C@H]3C(=O)N3CCCC[C@H]3C(=O)N[C@@H](C)C(=O)N3C[C@H](C)C[C@H]3C(=O)O[C@H]2C)c1 [Compound 304] ({X6-CO}-[Phe(3,5-F2)][aThr]P[Pip]A[Pro(4R-Me)]; ester 2-C)
[reply] yes

[ask] API: query returns whether the compound falls strictly under 0.1 µM in MIC. Query: CCCC/C=C/C(=O)N[C@@H](Cc1cc(F)cc(F)c1)C(=O)N[C@@H]1C(=O)N2C[C@H](O)C[C@H]2C(=O)N2CCCC[C@H]2C(=O)N[C@@H](C)C(=O)N2C[C@H](C)C[C@H]2C(=O)O[C@H]1C [Compound 301] ({Heptenoyl(2E)}-[Phe(3,5-F2)][aThr][Hyp][Pip]A[Pro(4R-Me)]; ester 2-C)
[reply] yes
